- experimentalTarget: rSARS2-B.1.1.7 S aa16-1211 2x aa mut., C-His (SARS-CoV-2, UniProt P0DTC2 16-1211)
- experimentNotes: flow cytometry, blocking of binding to hACE-2 cells
The entries below are paired with their reported percent blocking.

[[record]]
binder = "1035762 (antibody, V domains shown) VH: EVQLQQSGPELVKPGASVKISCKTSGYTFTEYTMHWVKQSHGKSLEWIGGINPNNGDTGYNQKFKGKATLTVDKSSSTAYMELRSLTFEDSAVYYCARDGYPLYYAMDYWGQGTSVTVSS VL: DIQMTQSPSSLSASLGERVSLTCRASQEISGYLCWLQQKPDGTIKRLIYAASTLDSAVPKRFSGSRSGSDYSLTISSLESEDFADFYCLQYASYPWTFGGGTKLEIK"
measured = "75.7%"

[[record]]
binder = "1035752 (antibody, V domains shown) VH: QVQLQQPGAELVRPGASVKMSCKASGYTFTSHSIHWVKQTPGQGLEWIGAVYPGNGDTSYYQKFKGKATLTADKSSSTAYMHLSSLTSEDSAVYYCARDGYSDYYAMDCWGQGTSVTVSS VL: DIVMTQSQKFMSTSVGDRVSVTCKASQNVGTNVAWYQQKPGQSPKALIYSASYRYSGVPDRFTGSGSGTDFTLTINNVQSEDLAEYFCQQYNRYPWTFGGGTKLEIK"
measured = "81.4%"


Incoming: Suppose we examine the binder 1035709 (antibody, V domains shown) VH: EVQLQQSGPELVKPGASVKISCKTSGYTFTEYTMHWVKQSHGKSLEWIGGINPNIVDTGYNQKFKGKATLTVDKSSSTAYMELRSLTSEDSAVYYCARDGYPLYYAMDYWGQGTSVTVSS VL: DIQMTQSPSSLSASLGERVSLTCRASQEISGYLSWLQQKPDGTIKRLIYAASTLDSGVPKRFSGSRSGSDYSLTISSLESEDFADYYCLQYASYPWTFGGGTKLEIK ; what percent blocking value has been reported?
Outgoing: 92.1%

The measured values listed here are drawn from patent US20230408517A1.
